Field: IC50. Provide a value for each of the compounds that follow.
testTarget: UniProt:P16234
Sequence (P16234 24-1089, species assumed): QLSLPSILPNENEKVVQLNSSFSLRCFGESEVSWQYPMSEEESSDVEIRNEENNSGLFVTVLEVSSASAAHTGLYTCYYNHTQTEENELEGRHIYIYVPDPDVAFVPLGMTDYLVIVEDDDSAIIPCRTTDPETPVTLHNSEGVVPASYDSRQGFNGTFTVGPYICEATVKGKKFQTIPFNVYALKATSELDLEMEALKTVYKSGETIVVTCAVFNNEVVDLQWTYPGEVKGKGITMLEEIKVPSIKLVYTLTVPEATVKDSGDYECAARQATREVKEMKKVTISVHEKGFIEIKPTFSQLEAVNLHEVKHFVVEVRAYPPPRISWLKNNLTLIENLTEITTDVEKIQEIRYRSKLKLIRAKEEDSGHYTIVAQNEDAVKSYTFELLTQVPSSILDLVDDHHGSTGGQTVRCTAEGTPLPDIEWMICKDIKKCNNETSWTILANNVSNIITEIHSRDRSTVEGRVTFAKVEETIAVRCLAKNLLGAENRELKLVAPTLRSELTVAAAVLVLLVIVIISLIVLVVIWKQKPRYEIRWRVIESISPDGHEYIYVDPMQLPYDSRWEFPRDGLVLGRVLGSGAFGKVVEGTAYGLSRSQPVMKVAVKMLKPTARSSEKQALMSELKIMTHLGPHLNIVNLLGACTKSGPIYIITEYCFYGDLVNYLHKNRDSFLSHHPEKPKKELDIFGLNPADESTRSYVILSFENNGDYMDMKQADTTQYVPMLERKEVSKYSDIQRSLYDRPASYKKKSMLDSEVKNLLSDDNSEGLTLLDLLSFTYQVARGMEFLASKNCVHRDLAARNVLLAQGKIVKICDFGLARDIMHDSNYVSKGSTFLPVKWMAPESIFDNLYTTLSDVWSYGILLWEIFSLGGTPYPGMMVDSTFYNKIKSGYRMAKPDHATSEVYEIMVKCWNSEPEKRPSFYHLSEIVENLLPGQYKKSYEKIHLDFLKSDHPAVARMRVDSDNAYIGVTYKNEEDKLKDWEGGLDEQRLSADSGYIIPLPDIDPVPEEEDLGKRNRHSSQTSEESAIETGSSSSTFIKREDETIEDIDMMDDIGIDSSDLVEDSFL
assayComment: Enzymatic kinase assay (filter-binding / flashplate, 33P incorporation)
Assay type: biochemical
conditionParameters: enzymatic kinase selectivity

For reference, reported IC50 for Nc1ncnc2c1c(-c1ccc3c(c1)OC(c1ccccc1)CC3)cn2C1CC(O)(CO)C1 (single isomer, unassigned) [Example 26] stands at > 10000 nM

For reference, reported IC50 for Nc1ncnc2c1c(-c1ccc3c(c1)OC(c1ccccc1)C=C3)cn2[C@H]1C[C@@H](CN2CCS(=O)(=O)CC2)C1 (mixture of isomers) [Example 21] stands at 770 nM

For reference, reported IC50 for CC(=O)N1CCN([C@H]2C[C@@H](n3cc(-c4ccc5c(c4)OC(c4ccccc4)CC5)c4c(N)ncnc43)C2)CC1 (relative stereo) [Example 38] stands at > 10000 nM

For reference, reported IC50 for CC(=O)NC[C@H]1C[C@@H](n2cc(-c3ccc4c(c3)OC(c3ccccc3)CC4)c3c(N)ncnc32)C1 (mixture of isomers) [Example 16] stands at 1200 nM

====

testTarget: KDR (Homo sapiens, UniProt P35968)
Sequence (P35968 20-1356, species assumed): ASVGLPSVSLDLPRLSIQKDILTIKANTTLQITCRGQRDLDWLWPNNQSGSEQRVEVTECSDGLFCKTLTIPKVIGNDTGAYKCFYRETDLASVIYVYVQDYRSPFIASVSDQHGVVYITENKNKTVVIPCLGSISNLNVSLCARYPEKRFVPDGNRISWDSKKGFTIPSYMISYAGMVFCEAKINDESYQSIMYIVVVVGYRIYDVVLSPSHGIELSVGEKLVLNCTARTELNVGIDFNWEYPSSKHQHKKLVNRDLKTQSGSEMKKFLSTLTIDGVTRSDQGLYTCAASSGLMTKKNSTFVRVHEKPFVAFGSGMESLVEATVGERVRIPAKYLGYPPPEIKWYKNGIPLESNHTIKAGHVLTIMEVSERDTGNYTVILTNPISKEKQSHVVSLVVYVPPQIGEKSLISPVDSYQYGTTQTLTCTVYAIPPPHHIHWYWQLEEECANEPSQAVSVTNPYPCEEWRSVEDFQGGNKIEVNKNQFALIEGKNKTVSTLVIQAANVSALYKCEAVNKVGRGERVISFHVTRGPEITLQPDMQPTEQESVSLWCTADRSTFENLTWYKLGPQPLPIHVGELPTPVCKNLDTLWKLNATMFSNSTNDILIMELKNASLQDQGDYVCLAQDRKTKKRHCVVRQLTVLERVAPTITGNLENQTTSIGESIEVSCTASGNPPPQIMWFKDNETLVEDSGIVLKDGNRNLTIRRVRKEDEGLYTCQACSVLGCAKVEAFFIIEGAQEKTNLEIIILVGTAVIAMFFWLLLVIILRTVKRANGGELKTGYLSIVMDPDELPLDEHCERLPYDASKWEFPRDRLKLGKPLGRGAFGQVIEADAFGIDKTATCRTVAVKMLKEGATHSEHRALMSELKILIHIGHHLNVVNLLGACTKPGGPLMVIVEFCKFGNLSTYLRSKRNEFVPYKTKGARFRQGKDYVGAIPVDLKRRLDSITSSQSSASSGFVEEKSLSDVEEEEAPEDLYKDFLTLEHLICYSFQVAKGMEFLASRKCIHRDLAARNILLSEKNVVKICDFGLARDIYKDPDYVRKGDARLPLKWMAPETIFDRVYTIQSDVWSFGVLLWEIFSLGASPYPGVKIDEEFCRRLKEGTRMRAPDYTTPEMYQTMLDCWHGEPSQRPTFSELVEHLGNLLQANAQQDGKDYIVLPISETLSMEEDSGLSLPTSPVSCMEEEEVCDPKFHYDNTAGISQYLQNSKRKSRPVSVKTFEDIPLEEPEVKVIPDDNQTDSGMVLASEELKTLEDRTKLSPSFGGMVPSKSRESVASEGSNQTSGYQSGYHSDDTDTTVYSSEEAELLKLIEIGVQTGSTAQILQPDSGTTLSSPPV
assayComment: Enzymatic kinase assay (filter-binding / flashplate, 33P incorporation)
Assay type: biochemical
conditionParameters: enzymatic kinase selectivity
Method: Two methods were used to analyze phosphorylated peptides and proteins produced by the listed tyrosine and serine/threonine-specific protein kinases: either using a filter-binding assay (FB), or using a flashplate assay (FP). The activities of protein kinases were assayed in the presence or absence of inhibitors, by measuring the incorporation of ^33P from [γ^33P]ATP into appropriate substrates. 96-well polypropylene microplates were used to assay the activity in the FB mode. […]
experimentalEndpoint: IC50 (nM)
Your answer should be a plain number; it is taken to be in nM.

For reference, reported IC50 for Nc1ncnc2c1c(-c1ccc3c(c1)OC(c1ccccc1)C=C3)cn2[C@H]1C[C@@H](CN2CCS(=O)(=O)CC2)C1 (mixture of isomers) stands at 110

For reference, reported IC50 for Nc1ncnc2c1c(-c1ccc3c(c1)OC(c1ccccc1)CC3)cn2C1CC(O)(CO)C1 (single isomer, unassigned) stands at 250

For reference, reported IC50 for CC(=O)N1CCN([C@H]2C[C@@H](n3cc(-c4ccc5c(c4)OC(c4ccccc4)CC5)c4c(N)ncnc43)C2)CC1 (relative stereo) stands at 240

For reference, reported IC50 for CC(=O)NC[C@H]1C[C@@H](n2cc(-c3ccc4c(c3)OC(c3ccccc3)CC4)c3c(N)ncnc32)C1 (mixture of isomers) stands at 160

====

Field: IC50. Provide a value for each of the compounds that follow.
testTarget: IGF1R (Homo sapiens, UniProt P08069)
Sequence (P08069 31-1367): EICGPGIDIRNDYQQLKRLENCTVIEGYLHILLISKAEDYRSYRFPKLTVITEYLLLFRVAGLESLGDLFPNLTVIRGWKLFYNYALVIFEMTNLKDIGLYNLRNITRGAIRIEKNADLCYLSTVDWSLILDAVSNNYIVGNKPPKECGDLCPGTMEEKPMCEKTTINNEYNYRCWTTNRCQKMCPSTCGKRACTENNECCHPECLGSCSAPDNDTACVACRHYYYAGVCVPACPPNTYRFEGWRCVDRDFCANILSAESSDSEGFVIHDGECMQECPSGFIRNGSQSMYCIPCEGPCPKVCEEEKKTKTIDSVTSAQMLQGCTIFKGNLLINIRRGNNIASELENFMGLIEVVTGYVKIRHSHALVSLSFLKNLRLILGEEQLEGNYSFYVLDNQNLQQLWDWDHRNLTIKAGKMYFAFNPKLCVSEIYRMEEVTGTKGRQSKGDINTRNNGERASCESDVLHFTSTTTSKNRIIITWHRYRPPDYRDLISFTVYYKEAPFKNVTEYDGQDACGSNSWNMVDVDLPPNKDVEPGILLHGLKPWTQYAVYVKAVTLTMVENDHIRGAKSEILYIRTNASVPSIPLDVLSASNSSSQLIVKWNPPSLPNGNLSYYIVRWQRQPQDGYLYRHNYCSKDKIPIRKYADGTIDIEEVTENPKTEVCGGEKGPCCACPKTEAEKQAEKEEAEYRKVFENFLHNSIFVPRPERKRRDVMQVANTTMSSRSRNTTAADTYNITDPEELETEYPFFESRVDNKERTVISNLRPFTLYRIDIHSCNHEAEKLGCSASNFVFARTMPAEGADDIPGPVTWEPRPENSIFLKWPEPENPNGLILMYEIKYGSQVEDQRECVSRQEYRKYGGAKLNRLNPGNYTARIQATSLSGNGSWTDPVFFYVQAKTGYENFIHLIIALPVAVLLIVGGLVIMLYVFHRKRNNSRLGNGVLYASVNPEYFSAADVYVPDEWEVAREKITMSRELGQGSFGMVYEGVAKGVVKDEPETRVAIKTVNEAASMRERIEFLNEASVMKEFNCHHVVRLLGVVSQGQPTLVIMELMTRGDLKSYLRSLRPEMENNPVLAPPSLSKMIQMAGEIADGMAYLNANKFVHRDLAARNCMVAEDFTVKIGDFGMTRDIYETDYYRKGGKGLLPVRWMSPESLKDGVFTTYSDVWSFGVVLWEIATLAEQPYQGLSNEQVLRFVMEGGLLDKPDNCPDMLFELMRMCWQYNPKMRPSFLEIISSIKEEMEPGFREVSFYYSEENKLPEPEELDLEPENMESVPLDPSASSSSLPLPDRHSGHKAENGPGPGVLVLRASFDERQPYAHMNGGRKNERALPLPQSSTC
assayComment: Cellular IGF-1R assay: inhibition of IGF1R phosphorylation in transduced Hek293 cells, capture ELISA (MSD)
Format: cell-based
Set-up: Hek293 cells transduced with the corresponding receptors; expressed in transfected cells; host or cells: Hek293 (Hek293-IGF1R)
Your answer should be a plain number; it is taken to be in µM.

For reference, reported IC50 for Nc1ncnc2c1c(-c1ccc3c(c1)OC(c1ccccn1)CC3)cn2[C@H]1C[C@@](O)(CO)C1 (mixture of isomers) stands at 0.548

For reference, reported IC50 for "Nc1ncnc2c1c(-c1ccc3c(c1)OC(c1ccccc1)=CC3)cn2[C@H]1C[C@@H](CN2CCS(=O)(=O)CC2)C1" stands at 0.179

For reference, reported IC50 for Nc1ncnc2c1c(-c1ccc3c(c1)OC(c1ccccc1)CC3)cn2[C@H]1C[C@@H](CN2[C@@H]3CC[C@H]2C[C@H](O)C3)C1 (mixture of isomers) stands at 0.087
